Experiment: Pharmacokinetics assay in MiaPaca 2 tumor-bearing mice (plasma, tumor tissue, intestine)
Type: in vivo
Conditions: female, mouse, Ileum, oral 6 mg/kg
Description: MiaPaca 2 tumor-bearing mice were used as test animals. Twenty-four female MiaPaca 2 tumor-bearing mice were used. Three mice were used for each time point (0 hour, 1 hour, 2 hours, 4 hours, 6 hours, 8 hours, 16 hours and 24 hours). The mice were purchased from Shanghai Sippr-BK laboratory animal Co. Ltd., with Certificate No.: SCXK (Shanghai) 2018-0006. The solution was shaked well, and subjected to ultrasound for 15 minutes to obtain a uniform suspension with a concentration of 0.6 mg/mL. […]
measured_quantity: Cmax (ng/mL)

compound: Nc1nc(N2CCC3(CC2)Cc2ccccc2[C@H]3N)c(F)nc1Sc1ccnc(N)c1Cl [Example 179]
measured_quantity: Cmax
value: 1930

====

test: Pharmacokinetics assay in mice, oral administration; type: in vivo; details: mouse; male Balb/c mice, oral 5 mg/kg, plasma

smiles_notation: Nc1nccc(Sc2cnc(N3CCC4(CC=C(C5CC5)[C@H]4N)CC3)cn2)c1Cl
AUC(0-inf) / ng·h/mL: 5390
--
smiles_notation: Nc1nc(N2CCC3(CC2)Cc2ncsc2[C@H]3N)c(F)nc1Sc1ccnc(N)c1Cl
AUC(0-inf) / ng·h/mL: 8160
--
smiles_notation: Nc1nc(N2CCC3(CC2)Cc2ncccc2[C@H]3N)c(F)nc1Sc1ccnc(N)c1Cl
AUC(0-inf) / ng·h/mL: 5980
--
smiles_notation: Nc1nc(N2CCC3(CC2)Cc2ccccc2[C@H]3N)c(F)nc1Sc1ccnc(N)c1Cl
AUC(0-inf) / ng·h/mL: 2440
--
smiles_notation: Cc1nc(N2CCC3(CC2)Cc2ncsc2[C@H]3N)c(CO)nc1Sc1ccnc(N)c1Cl
AUC(0-inf) / ng·h/mL: 2210

====

assay: Pharmacokinetics assay in MiaPaca 2 tumor-bearing mice (plasma, tumor tissue, intestine); type: in vivo; conditions: female, mouse, Ileum, oral 6 mg/kg
measured_quantity: MRT (h)

smiles_notation: Nc1nc(N2CCC3(CC2)Cc2ccccc2[C@H]3N)c(F)nc1Sc1ccnc(N)c1Cl
value: 6.1

====

test: Pharmacokinetics assay in MiaPaca 2 tumor-bearing mice (plasma, tumor tissue, intestine); type: in vivo; conditions: female, mouse, Duodenum, oral 6 mg/kg
measured_quantity: MRT (h)

smiles_notation: Nc1nc(N2CCC3(CC2)Cc2ccccc2[C@H]3N)c(F)nc1Sc1ccnc(N)c1Cl
unit_spec: h
value: 4.8

====

Target: SHP-2 full-length protein (Homo sapiens)
Sequence (Q06124 1-593): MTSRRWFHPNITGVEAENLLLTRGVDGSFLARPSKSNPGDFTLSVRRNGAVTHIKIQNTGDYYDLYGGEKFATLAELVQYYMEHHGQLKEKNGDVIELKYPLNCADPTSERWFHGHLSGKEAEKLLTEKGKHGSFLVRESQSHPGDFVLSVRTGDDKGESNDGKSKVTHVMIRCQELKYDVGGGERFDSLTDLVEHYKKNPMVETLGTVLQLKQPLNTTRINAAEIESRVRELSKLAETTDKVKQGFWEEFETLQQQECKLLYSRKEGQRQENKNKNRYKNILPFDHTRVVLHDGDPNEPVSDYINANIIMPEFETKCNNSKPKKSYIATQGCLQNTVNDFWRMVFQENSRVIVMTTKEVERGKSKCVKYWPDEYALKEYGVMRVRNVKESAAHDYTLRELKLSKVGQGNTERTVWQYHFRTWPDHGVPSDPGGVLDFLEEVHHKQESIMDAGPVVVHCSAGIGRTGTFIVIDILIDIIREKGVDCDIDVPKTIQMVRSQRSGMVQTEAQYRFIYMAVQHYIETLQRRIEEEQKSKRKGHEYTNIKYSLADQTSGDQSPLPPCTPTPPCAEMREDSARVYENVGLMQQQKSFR

molecule: Cc1nc(N2CCC3(CC2)Cc2ncsc2[C@H]3N)c(CO)nc1Sc1ccnc(N)c1Cl [Example 171]
IC50, nM: 1.73
//
molecule: Nc1nc(N2CCC3(CC2)Cc2ccccc2[C@H]3N)c(Br)nc1Sc1ccnc(N)c1Cl [Example 95]
IC50, nM: 6.27
//
molecule: Nc1nc(N2CCC3(CC2)Cc2ccccc2[C@H]3N)cnc1Sc1ccnc(N2CCC2)c1Cl [Example 100]
IC50, nM: 0.98
//
molecule: Nc1nc(N2CCC3(CC2)Cc2ccccc2[C@H]3N)cnc1Sc1ccnc(C2CC2)c1Cl [Example 93]
IC50, nM: 4.33
//
molecule: Nc1nccc(Sc2cnc(N3CCC4(CC=C(C5CC5)[C@H]4N)CC3)cn2)c1Cl [Example 144]
IC50, nM: 1.48
//
molecule: Nc1nc(N2CCC3(CC2)Cc2ccccc2[C@H]3N)cnc1Sc1ccnc(Cl)c1C1CC1 [Example 92]
IC50, nM: 4.17
//
molecule: Cc1nc(N2CCC3(CC2)Cc2ccccc2[C@H]3N)c(CO)nc1-c1cccc(Cl)c1Cl [Example 105]
IC50, nM: 1.56
